Values from the supplement of paper PMC12645437

The entries below are paired with their reported log2 fold change of degron read counts.
study-system: T1, CRBN, Q96SW2;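 also: pooled lentiviral library of zinc finger degron-EGFP fusions in mCherry-positive Jurkat cells, FACS-sorted after compound exposure, with degron abundance counted by next-generation sequencing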
T1 chain: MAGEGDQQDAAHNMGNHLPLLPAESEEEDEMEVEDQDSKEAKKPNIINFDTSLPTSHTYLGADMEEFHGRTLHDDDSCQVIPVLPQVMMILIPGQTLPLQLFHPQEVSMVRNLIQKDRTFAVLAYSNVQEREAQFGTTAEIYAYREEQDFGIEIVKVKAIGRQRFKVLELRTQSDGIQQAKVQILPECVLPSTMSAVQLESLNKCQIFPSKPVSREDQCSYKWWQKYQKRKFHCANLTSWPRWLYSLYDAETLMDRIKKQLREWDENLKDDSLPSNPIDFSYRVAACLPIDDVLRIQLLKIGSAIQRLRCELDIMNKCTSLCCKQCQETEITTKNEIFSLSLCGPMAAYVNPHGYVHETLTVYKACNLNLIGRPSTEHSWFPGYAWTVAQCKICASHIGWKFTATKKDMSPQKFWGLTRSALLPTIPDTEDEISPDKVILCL
assay-notes: log2 fold change of degron read counts, EGFP-low vs EGFP+ sorted cells (limma voom), compound-induced degradation; higher = more compound-induced degradation of the degron-EGFP fusion; degrons are variants of IKZF1/3 zinc finger 2; compound dose not given here
conditions-used: Jurkat; 18 h; compound: compound 22 (5-morpholino-thalidomide)
Over roughly 8,300 sequences, “log2 fold change of degron read counts, EGFP-low vs EGFP+ sorted cells (limma voom), compound-induced degradation” has its median near -1.1; the highest 2% begin near 3.2. The entries come from a sample that favours the highest values as a whole.
Please respond with just the number, no unit label.

Before answering, review these 6 worked examples.
{"chain": "FKCNVCGASFTQKGNLLRHIKL [46F_47K_49N_50V_52G_53A_54S_55F_67L_, Q9UKT9]", "log2 fold change of degron read counts": -2.06}
{"chain": "FICNICGAGFTQKGNLLRHIKL [46F_47I_49N_50I_52G_53A_54G_55F_67L_, Q9UKT9]", "log2 fold change of degron read counts": 1.17}
{"chain": "FSCPICGHEFTQKGNLLRHIKL [46F_47S_49P_50I_52G_53H_54E_55F_67L_, Q9UKT9]", "log2 fold change of degron read counts": -3.52}
{"chain": "FQCNVCGAGFTQKGNLLRHIKL [46F_47Q_49N_50V_52G_53A_54G_55F_67L_, Q9UKT9]", "log2 fold change of degron read counts": -0.754}
{"chain": "FECSVCGHCFTQKGNLLRHIKL [46F_47E_49S_50V_52G_53H_54C_55F_67L_, Q9UKT9]", "log2 fold change of degron read counts": -3.1}
{"chain": "LKCEICGFTCTQKGNLLRHIKL [46L_47K_49E_50I_52G_53F_54T_55C_67L_, Q9UKT9]", "log2 fold change of degron read counts": -2.29}

Switching to the query record.
Give its log2 fold change of degron read counts value. Item: FNCPICGHAFTQKGNLLRHIKL [46F_47N_49P_50I_52G_53H_54A_55F_67L_, Q9UKT9]
-2.91
